Molecular target: T1, hIL-4Rα on cells (human, UniProt P24394 26-825)
T1 sequence: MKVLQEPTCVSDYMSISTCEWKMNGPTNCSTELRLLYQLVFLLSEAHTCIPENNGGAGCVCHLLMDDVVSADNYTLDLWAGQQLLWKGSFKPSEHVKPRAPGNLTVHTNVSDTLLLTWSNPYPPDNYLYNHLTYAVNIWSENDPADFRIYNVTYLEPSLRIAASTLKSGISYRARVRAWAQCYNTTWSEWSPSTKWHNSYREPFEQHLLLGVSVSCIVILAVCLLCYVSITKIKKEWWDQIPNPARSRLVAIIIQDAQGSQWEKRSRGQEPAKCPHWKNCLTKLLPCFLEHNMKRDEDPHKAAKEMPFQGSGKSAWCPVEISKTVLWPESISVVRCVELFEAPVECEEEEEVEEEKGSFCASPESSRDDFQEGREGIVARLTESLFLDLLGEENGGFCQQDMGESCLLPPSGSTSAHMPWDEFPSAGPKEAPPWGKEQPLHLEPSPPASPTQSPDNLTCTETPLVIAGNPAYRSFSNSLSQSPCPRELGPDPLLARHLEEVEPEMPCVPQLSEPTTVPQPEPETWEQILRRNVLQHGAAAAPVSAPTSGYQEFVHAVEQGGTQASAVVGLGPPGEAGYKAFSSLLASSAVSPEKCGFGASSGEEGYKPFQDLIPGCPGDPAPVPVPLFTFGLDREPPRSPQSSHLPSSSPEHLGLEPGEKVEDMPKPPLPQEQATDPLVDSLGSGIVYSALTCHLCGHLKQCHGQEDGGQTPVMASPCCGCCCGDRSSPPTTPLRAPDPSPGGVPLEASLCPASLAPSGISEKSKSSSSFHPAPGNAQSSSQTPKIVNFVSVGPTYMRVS
Experiment: cell-based or functional assay
ENDPOINT_LABEL: Relative Inhibition of IL-4 induced TF-1 Proliferation IC50

{"columns": ["BINDER", "RESULT"],
 "data": [
  ["Construct 39 (mAb473) (antibody, IgG4, V domains shown, VH/VL only) VH: EVQLVESGGGLEQPGGSLRLSCAGSGFTFRDSAMTWVRQAPGKGLEWVSSISGSGDNTYYADSVKGRFTISRDNSKNTLYLQMNSLRAEDTAVYYCAKDRLSITVRPRYYGLDVWGQGTTVTVSS VL: DIVMTQSPLSLPVTPGEPASISCRSSQSLLYSIGKNYVDWYLQKSGQSPQLLIYLGNKRASGVPDRFSGSGSGTDFTLKISRVEAEDVGFYYCMQALGSPYTFGQGTKLEIK", "1.18 relative to dupilumab"],
  ["Construct 41 (mAb478) (antibody, IgG4, V domains shown, VH/VL only) VH: EVQLVESGGGLEQPGGSLRLSCAGSGFTFRDFAMTWVRQAPGKGLEWVSSISGGGGNTYYADSVKGRFTISRDNSKNTLYLQMNSLRAEDTAVYYCAKDRVSITIRPRYYGLDVWGQGTTVTVSS VL: DIVMTQSPLSLPVTPGEPASISCTASQSLLYSIGYNYVDWYLQKSGQSPQLLIYLGNKRASGVPDRFSGSGSGTDFTLKISRVEAEDVGFYYCMQAYNSPYTFGQGTKLEIK", "0.82 relative to dupilumab"],
  ["Construct 38 (mAb471) (antibody, IgG4, V domains shown, VH/VL only) VH: EVQLVESGGGLEQPGGSLRLSCAGSGFTFRDFAMTWVRQAPGKGLEWVSSISGSGGNIYYADSVKGRFTISRDNSKNTLYLQMNSLRAEDTAVYYCAKDRLSVTVRPRYYGLDVWGQGTTVTVSS VL: DIVMTQSPLSLPVTPGEPASISCRSSQSLLYSIGKNYVDWYLQKSGQSPQLLIYEGNKRASGVPDRFSGSGSGTDFTLKISRVEAEDVGFYYCMQSLTSPYTFGQGTKLEIK", "1.04 relative to dupilumab"]
]}

Please report Relative Inhibition of IL-4 induced TF-1 Proliferation IC50 for every entry that follows.
1. Construct 37 (mAb470) (antibody, IgG4, V domains shown, VH/VL only) VH: EVQLVESGGGLEQPGGSLRLSCAGSGFTFRTYAMTWVRQAPGKGLEWVSSISGGGGNTYYADSVKGRFTISRDNSKNTLYLQMNSLRAEDTAVYYCAKDRLSVTVRPRYYGLDVWGQGTTVTVSS VL: DIVMTQSPLSLPVTPGEPASISCRASQSLLYSVGYNYVDWYLQKSGQSPQLLIYLGNNRASGVPDRFSGSGSGTDFTLKISRVEAEDVGFYYCMQSLTSPYTFGQGTKLEIK
2. Construct 36 (mAb469) (antibody, IgG4, V domains shown, VH/VL only) VH: EVQLVESGGGLEQPGGSLRLSCAGSGFTFRDFAMTWVRQAPGKGLEWVSSISGSGGNIYYADSVKGRFTISRDNSKNTLYLQMNSLRAEDTAVYYCAKDRLSKTIRPRYYGLDVWGQGTTVTVSS VL: DIVMTQSPLSLPVTPGEPASISCRSSQSLLYSIGKNYVDWYLQKSGQSPQLLIYEGNNRASGVPDRFSGSGSGTDFTLKISRVEAEDVGFYYCMQSLTSPYTFGQGTKLEIK
3. Construct 8 (mAb417) (antibody, IgG4, V domains shown, VH/VL only) VH: EVQLVESGGGLEQPGGSLRLSCAGSGFTFRDFAMTWVRQAPGKGLEWVSSISGSGDNIYYADSVKGRFTISRDNSKNTLYLQMNSLRAEDTAVYYCAKDRLSVTVRPRYYGLDVWGQGTTVTVSS VL: DIVMTQSPLSLPVTPGEPASISCRSTQSLLYSIGKNYVDWYLQKSGQSPQLLIYLGNNRATGVPDRFSGSGSGTDFTLKISRVEAEDVGFYYCMQALTTPYAFGQGTKLEIK

["0.943 relative to dupilumab", "1.05 relative to dupilumab", "0.734 relative to dupilumab"]

Need Relative Inhibition of IL-4 induced TF-1 Proliferation IC50 for each of these binders.
1. Construct 6 (mAb415) (antibody, IgG4, V domains shown, VH/VL only) VH: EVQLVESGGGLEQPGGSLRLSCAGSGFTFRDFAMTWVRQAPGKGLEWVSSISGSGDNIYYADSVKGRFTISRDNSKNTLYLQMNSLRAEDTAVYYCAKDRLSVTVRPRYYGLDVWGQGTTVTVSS VL: DIVMTQSPLSLPVTPGEPASISCRSSQGLLYSIGYNYVDWYLQKSGQSPQLLIYLGNKRASGVPDRFSGSGSGTDFTLKISRVEAEDVGFYYCMQSLQTPYTFGQGTKLEIK
2. Construct 19 (mAb427) (antibody, IgG4, V domains shown, VH/VL only) VH: EVQLVESGGGLEQPGGSLRLSCAGSGFTFRTYAMTWVRQAPGKGLEWVSSISGSGDNTYYADSVKGRFTISRDNSKNTLYLQMNSLRAEDTAVYYCAKDRVSITIRPRYYGLDVWGQGTTVTVSS VL: DIVMTQSPLSLPVTPGEPASISCTSSQSLLYSIGYNYVDWYLQKSGQSPQLLIYLGNKRASGVPDRFSGSGSGTDFTLKISRVEAEDVGFYYCMQALGSPYTFGQGTKLEIK
3. Construct 33 (mAb450) (antibody, IgG4, V domains shown, VH/VL only) VH: EVQLVESGGGLEQPGGSLRLSCAGSGFTFRDFAMTWVRQAPGKGLEWVSSISGSGGNIYYADSVKGRFTISRDNSKNTLYLQMNSLRAEDTAVYYCAKDRVSITIRPRYYGLDVWGQGTTVTVSS VL: DIVMTQSPLSLPVTPGEPASISCTASQSLLYSIGYNYVDWYLQKSGQSPQLLIYLGSKRASGVPDRFSGSGSGTDFTLKISRVEAEDVGFYYCMQALGSPYTFGQGTKLEIK
4. Construct 16 (mAb424) (antibody, IgG4, V domains shown, VH/VL only) VH: EVQLVESGGGLEQPGGSLRLSCAGSGFTFRTYAMTWVRQAPGKGLEWVSSISGSGDNIYYADSVKGRFTISRDNSKNTLYLQMNSLRAEDTAVYYCAKDRLSVTIRPRYYGLDVWGQGTTVTVSS VL: DIVMTQSPLSLPVTPGEPASISCTASQSLLYSIGYNYVDWYLQKSGQSPQLLIYLGNKRASGVPDRFSGSGSGTDFTLKISRVEAEDVGFYYCMQSLTSPYTFGQGTKLEIK

1: 0.92 relative to dupilumab; 2: 0.835 relative to dupilumab; 3: 1.05 relative to dupilumab; 4: 1.04 relative to dupilumab
